# ASSAY DETAILS: qHTS of pediatric cancer cell lines to identify multiple opportunities for drug repurposing: Primary screen for SJ-GBM2 cells (AID 1347091)
# CONDITIONS: SJ-GBM2 viability, CellTiter-Glo luminescence, 48 h; series mostly up to 46 µM
Results filed as inconclusive are left out. Active and inactive are the calls of the source. Calls come from the whole dose curve; as a rule, active = well fitted cell-killing curve with a large enough effect; inconclusive = small, poorly fitted or top-dose-only effect; inactive = no such curve, though single readings can be large or run the other way.
Please state which outcome applies, choosing from Y = active, N = inactive

# example entries with known answers
CC(=O)Oc1ccccc1C(=O)O ... N
CCN(CC)CCCC(C)Nc1ccnc2cc(Cl)ccc12 (stereo not drawn) ... N
Cc1cc(Nc2nc(N[C@@H](C)c3ncc(F)cn3)ncc2Cl)n[nH]1 ... Y

**Query** Lab log entry: CO[C@@H]1[C@H](N(C)C(=O)c2ccccc2)C[C@H]2O[C@]1(C)n1c3ccccc3c3c4c(c5c6ccccc6n2c5c31)C(=O)NC4 — outcome as called in the assay?
**Result** Y

**Query** Lab log entry: CC(C=CC1=C(C)CCCC1(C)C)=CC=CC(C)=CC(=O)O — outcome as called in the assay?
**Result** N

**Query** Lab log entry: O=C(O)COCCN1CCN(C(c2ccccc2)c2ccc(Cl)cc2)CC1 (stereo not drawn) — outcome as called in the assay?
**Result** N

**Query** Lab log entry: COc1ccc2nc(S(=O)Cc3ncc(C)c(OC)c3C)[nH]c2c1 (stereo not drawn) — outcome as called in the assay?
**Result** N

**Query** Lab log entry: CCCC(CCC)C(=O)O — outcome as called in the assay?
**Result** N

**Query** Lab log entry: O=c1[nH]cnc2[nH]ncc12 — outcome as called in the assay?
**Result** N

**Query** Lab log entry: COc1ccc(CCN2CCN(CCCc3ccccc3)CC2)cc1OC — outcome as called in the assay?
**Result** N

**Query** Lab log entry: Cn1c(=O)c(F)c(Nc2ccc(I)cc2F)c2c(=O)n(C[C@@H](O)CO)cnc21 — outcome as called in the assay?
**Result** N

**Query** Lab log entry: Cc1cc(C=c2sc3nc4ccccc4n3c2=O)c(C)n1-c1ccccc1 — outcome as called in the assay?
**Result** N

**Query** Lab log entry: Cc1cnc(Nc2ccc(OCCN3CCCC3)cc2)nc1Nc1cccc(S(=O)(=O)NC(C)(C)C)c1 — outcome as called in the assay?
**Result** N

**Query** Lab log entry: NC(=O)c1ccc(I)c([N+](=O)[O-])c1 — outcome as called in the assay?
**Result** N

**Query** Lab log entry: CS(=O)(=O)c1cccc(CNc2nc(Nc3ccc4c(c3)CCC(=O)N4)ncc2C(F)(F)F)c1 — outcome as called in the assay?
**Result** Y

* * *

# ASSAY DETAILS: Primary qHTS for inhibitors of nuclear receptor binding SET domain protein 2 (NSD2) in an RCH-ACV wild type WT cells (2C) (AID 1645877); note: nearly all actives have a fitted effect of over 70% in size
# CONDITIONS: RCH-ACV (leukaemia line) NSD2 WT (2C) viability, CellTiter-Glo, 72 h; series mostly up to 44.9 µM
Records with an inconclusive call do not appear. The source made the active and inactive calls. Calls come from the whole dose curve; as a rule, active = well fitted inhibition curve with a large enough effect; inconclusive = small, poorly fitted or top-dose-only effect; inactive = no such curve, though single readings can be large or run the other way.
Please state which outcome applies, choosing from True (active), False (inactive)

Cc1ccc(-n2nc(C(C)(C)C)cc2NC(=O)Nc2ccc(OCCN3CCOCC3)c3ccccc23)cc1 ... True
CCn1c(-c2nonc2N)nc2c(C#CC(C)(C)O)ncc(OC[C@H]3CCCNC3)c21 ... True
OC(CN1CCC(Cc2ccc(F)cc2)CC1)c1ccc(Cl)cc1 (stereo unspecified) ... False
NC(=O)C1CCCc2c1[nH]c1ccc(Cl)cc21 (stereo unspecified) ... False
O=C(c1cc(Cc2n[nH]c(=O)c3ccccc23)ccc1F)N1CCN(C(=O)C2CC2)CC1 ... True
CC(C[N+](C)(C)C)OC(N)=O (stereo unspecified) ... False
Cc1cn[nH]c1 ... False
COc1ccc(-c2c(-c3ccc(O)cc3O)n[nH]c2C)cc1 ... False
COc1ccc(CCN2CCN(CCCc3ccccc3)CC2)cc1OC ... False
Cc1ccccc1C(OCCN(C)C)c1ccccc1 (stereo unspecified) ... False

**Query** Lab log entry: Cc1ccnc(NS(=O)(=O)c2ccc(NC(=O)Nc3ccc(S(=O)(=O)Nc4nccc(C)n4)cc3)cc2)n1 — outcome as called in the assay?
**Result** False

* * *

# ASSAY DETAILS: Quantitative High-Throughput drug screen in 47 multiple myeloma cell lines against the NCATS MIPE library collection: JIM3_ECACC cell viability assay (AID 1918963; note: nearly all actives have a fitted effect of over 35% in size)
# CONDITIONS: JIM3 myeloma viability, CellTiter-Glo ATP, 48 h; series mostly up to 45.8 µM
Results filed as inconclusive are left out. Activity calls are given as the source filed them. Calls follow the shape of the dose curve; as a rule, active = well fitted cell-killing curve with a large enough effect; inconclusive = small, poorly fitted or top-dose-only effect; inactive = no such curve, though single readings can be large or run the other way.
Please state which outcome applies, choosing from class 1 = active, class 0 = inactive

N#CC[C@H](C1CCCC1)n1cc(-c2ncnc3[nH]ccc23)cn1 ... class 1
Nc1ncnc2nc(-c3ccc(N4CCOCC4)nc3)cc(-c3cccc(Br)c3)c12 ... class 1
C[C@]12CC[C@H](O)CC1=CC[C@@H]1[C@H]2CC[C@]2(C)C(c3cccnc3)=CC[C@H]12 ... class 0

**Query** Lab log entry: Cc1ccc(NC(=O)c2cccc(C(C)(C)C#N)c2)cc1Nc1ccc2ncn(C)c(=O)c2c1 — outcome as called in the assay?
**Result** class 1

**Query** Lab log entry: O=C(O)CCc1ccc(NCc2cccc(Oc3ccccc3)c2)cc1 — outcome as called in the assay?
**Result** class 0

**Query** Lab log entry: O=S(=O)(N=Cc1c(O)ccc2ccccc12)c1cccs1 — outcome as called in the assay?
**Result** class 1

**Query** Lab log entry: C#Cc1cccc(Nc2ncnc3cc(OCCOC)c(OCCOC)cc23)c1 — outcome as called in the assay?
**Result** class 1

* * *

# Tested on: Zika virus NS2B-NS3 protease
# ASSAY DETAILS: Primary screen GU AMC qHTS for Zika virus inhibitors (AID 1347154); note: nearly all actives have a fitted effect of over 70% in size
# CONDITIONS: Zika NS2B-NS3 unlinked protease, AMC fluorogenic substrate; series mostly up to 54.1 µM
Records with an inconclusive call do not appear. Activity calls are given as the source filed them. Calls come from the whole dose curve; as a rule, active = well fitted inhibition curve with a large enough effect; inconclusive = small, poorly fitted or top-dose-only effect; inactive = flat fitted curve, though single readings scatter.
Please state which outcome applies, choosing from yes (1) (active), no (0) (inactive)

# example entries with known answers
Cn1cnc([N+](=O)[O-])c1Sc1ncnc2nc[nH]c12 ... no (0)
C1COC(NC(C2CC2)C2CC2)=N1 ... no (0)
COc1ccccc1-c1cccc(-c2c(O)c3cc(C#N)c(Cl)cc3[nH]c2=O)c1 ... yes (1)
COc1cc2nccc(Oc3ccc(NC(=O)NC4CC4)c(Cl)c3)c2cc1C(N)=O ... no (0)
NCCCC(N)(C(=O)O)C(F)F (stereo not drawn) ... no (0)
CNC[C@H](O)c1cccc(O)c1 ... no (0)
CC(C)(C)OC(=O)CN(Cc1ccc(Cl)cc1)Cc1ccc([N+](=O)[O-])s1 ... no (0)
Cc1c(CN2CCN(C(=O)C(C)C)CC2)sc2c(N3CCOCC3)nc(-c3cnc(N)nc3)nc12 ... no (0)

**Query** Lab log entry: CCn1c(-c2nonc2N)nc2c(C#CC(C)(C)O)ncc(OC[C@H]3CCCNC3)c21 — outcome as called in the assay?
**Result** no (0)

**Query** Lab log entry: Cc1[nH]c(=O)c(C#N)cc1-c1ccncc1 — outcome as called in the assay?
**Result** no (0)

* * *

# ASSAY DETAILS: Quantitative High-Throughput drug screen in 47 multiple myeloma cell lines against the NCATS MIPE library collection: Karpas620_DSMZ cell viability assay (AID 1918959); note: nearly all actives have a fitted effect of over 30% in size
# CONDITIONS: Karpas620 myeloma viability, CellTiter-Glo ATP luminescence, 48 h; series mostly up to 45.8 µM
Records with an inconclusive call do not appear. The source made the active and inactive calls. The call rests on the fitted dose curve; in most records, active means well fitted cell-killing curve with a large enough effect; inconclusive means small, poorly fitted or top-dose-only effect, or effect the other way; inactive means no such curve, though single readings can be large or run the other way.
Please state which outcome applies, choosing from active, inactive

Cn1c(=O)c(F)c(Nc2ccc(I)cc2F)c2c(=O)n(C[C@@H](O)CO)cnc21 ... active

**Query** Lab log entry: NNCCc1ccccc1 — outcome as called in the assay?
**Result** active

**Query** Lab log entry: CNCc1ccc(-c2[nH]c3cc(F)cc4c3c2CCNC4=O)cc1 — outcome as called in the assay?
**Result** inactive

**Query** Lab log entry: CC(C)(N)C(=O)N[C@H](COCc1ccccc1)C(=O)N1CCC2(CC1)CN(S(C)(=O)=O)c1ccccc12 — outcome as called in the assay?
**Result** inactive

**Query** Lab log entry: CO[C@@H]1[C@H](N(C)C(=O)c2ccccc2)C[C@H]2O[C@]1(C)n1c3ccccc3c3c4c(c5c6ccccc6n2c5c31)C(=O)NC4 — outcome as called in the assay?
**Result** active

* * *

# ASSAY DETAILS: Quantitative High-Throughput drug screen in 47 multiple myeloma cell lines against the NCATS MIPE library collection: KMS26_JCRB cell viability assay (AID 1918975); note: nearly all actives have a fitted effect of over 45% in size; note: potency is the fitted concentration of half-maximal effect
# CONDITIONS: KMS26 myeloma cells viability, CellTiter-Glo ATP, 48 h; series mostly up to 45.8 µM
# From the text: PI: Beverly A. Mock Ph.D. Laboratory of Cancer Biology and Genetics, Center for Cancer Research, National Cancer Institute, National Institute of Health, Bethesda, Maryland […] 5; Detector; 425V; Luminescence; Viewlux PerkinElmer. […] 1. […] Briefly, the corresponding myeloma cell lines were screened in 1,536-well plates with 500 cells, 5-uL per well for inhibition of cell viability (assessed by measuring ATP levels with CellTiterGlo). […]
Records with an inconclusive call do not appear. Active and inactive are the calls of the source. Calls come from the whole dose curve; as a rule, active = well fitted cell-killing curve with a large enough effect; inconclusive = small, poorly fitted or top-dose-only effect, or effect the other way; inactive = no such curve, though single readings can be large or run the other way.
QUANTITY NAME: Potency

Look over these answered cases.
COc1ccc(C2=N[C@H](c3ccc(Cl)cc3)[C@H](c3ccc(Cl)cc3)N2C(=O)N2CCNC(=O)C2)c(OC(C)C)c1 ... 16.6 µM (active)
Cc1cnc(NC(=O)C2=C(O)c3ccccc3S(=O)(=O)N2C)s1 ... inactive
CCCS(=O)(=O)Nc1ccc(F)c(C(=O)c2c[nH]c3ncc(Cl)cc23)c1F ... inactive
O=C(NOC[C@H](O)CO)c1ccc(F)c(F)c1Nc1ccc(I)cc1F ... inactive
CC(=O)Oc1ccccc1C(=O)O ... 11.8 µM (active)

**Query** Please report Potency for the following compound: Cc1cccc(-c2nn(C(=S)Nc3ccccc3)cc2-c2ccnc3ccccc23)n1
**Result** 6.62 µM (active)

**Query** Please report Potency for the following compound: COc1ccc2nc(S(=O)Cc3ncc(C)c(OC)c3C)[nH]c2c1 (stereo not given)
**Result** inactive
